We begin with a simple list: items and their reported ratio of WB intensities.
assay.system: His-tagged T2 mechanosensitive channel from Thermoplasma volcanium (Thermoplasma volcanium)
experiment: far-Western, overlay or dot blot; channel samples run on SDS-PAGE and blotted on nitrocellulose (His-tagged T1 0.1 µg, His-tagged T2 0.1 µg, tag free T2 0.01 and 0.1 µg); strips incubated with nanobody at 1 µg/ml for 1 hour, bound His-tagged nanobody detected with HisProbe-HRP; intensity ratio of lane 2 of the sample strip to the reference strip

binder	ratio of WB intensities
nanobody 17 (VHH, pHEN6 vector; also called Nb 17; CA-number 3399; source: E. coli WK6 periplasm, purified (IMAC, gel filtration); not shown: His-tag, C-terminal, kept) VHH: QVQLQESGGGLVQPGGSLRLSCAASGSIFSINSMDWYRQAPGKQRELVATITSGGSTNYADSVKGRFTISRDNGKNTVYLQMNSLKPEDTAVYYCHAVVSTRGGYWGQGTQVTVSS	6.09
nanobody 20 (VHH, pHEN6 vector; also called Nb 20; CA-number 3403; source: E. coli WK6 periplasm, purified (IMAC, gel filtration); not shown: His-tag, C-terminal, kept) VHH: QVQLQESGGGLVQPGGSLRLSCAASGNIFGINSMDWYRQAPGKQRELVATITSGGSTNYGDSVKGRFTISRDNAKNTMYLQMNSLKPEDTAVYYCHAVLSTRGGYWGQGTQVTVSS	4.86
